Reported MIC by item:
- System: C. neoformans H99
- ASSAY COMMENT: Broth microdilution of modified HDPs
- Type: cell-based, Cryptococcus neoformans
- EXPERIMENTAL SETUP: 0.19 to 50 μg/mL tested
No end group written: not given here.
OBSERVATION TYPE: MIC (µg/mL)

substance="KSKRWRKFEKRVKKIFEKTKEAK-NH2 [Act2]" target_under_test="C. neoformans H99" observation_type=MIC relation_sign== value_observed=25
substance="KSKRWRKFEKRVKKIFEKTKEA-NH2 [Act1]" target_under_test="C. neoformans H99" observation_type=MIC relation_sign== value_observed=50
substance="GSKRWRKFEKRVKKIFEKTKEA-NH2 [Act5]" target_under_test="C. neoformans H99" observation_type=MIC relation_sign== value_observed=25
substance="GSKRWRKFEKRVKKVFEHTKEA-NH2 [ox322]" target_under_test="C. neoformans H99" observation_type=MIC relation_sign== value_observed=50
substance="KSKRWRKFEKRVKKIFEHTKEA-NH2 [Act3]" target_under_test="C. neoformans H99" observation_type=MIC relation_sign== value_observed=50
substance="KSKRWRKFEKRVKKIFEHTKEAK-NH2 [Act4]" target_under_test="C. neoformans H99" observation_type=MIC relation_sign== value_observed=50
substance="GSKRWRKFEKRVKKIFEHTKEA-NH2 [Act7]" target_under_test="C. neoformans H99" observation_type=MIC relation_sign== value_observed=50
substance="KSKRWRKFEKRVKKIFEKFKEAK-NH2 [Act2.2]" target_under_test="C. neoformans H99" observation_type=MIC relation_sign== value_observed=12.5
substance="GSKRWRKFEKRVKKIFEKTKEAK-NH2 [Act6]" target_under_test="C. neoformans H99" observation_type=MIC relation_sign== value_observed=50
substance="GSKRWRKFEKRVKKIFEHTKEAK-NH2 [Act8]" target_under_test="C. neoformans H99" observation_type=MIC relation_sign== value_observed=50
substance="GSKRWRKFEKRVKKIFEETKEALPVVQGVAGVAGAVGRR-NH2 [ConCec]" target_under_test="C. neoformans H99" observation_type=MIC relation_sign== value_observed=25
substance="RSKKWRKIEKRVKKIFEKTKEA-NH2 [sat122]" target_under_test="C. neoformans H99" observation_type=MIC relation_sign== value_observed=50
substance="GSKRWRKFEKRVKK-NH2 [domcec]" target_under_test="C. neoformans H99" observation_type=MIC relation_sign=> value_observed=50
